- Study System: RecBCD enzyme subunit RecC (Escherichia coli (strain K12)) + RecBCD enzyme subunit RecB (Escherichia coli (strain K12)) (UniProt P07648+P08394)
- Sequence (P07648 whole entry, looked up): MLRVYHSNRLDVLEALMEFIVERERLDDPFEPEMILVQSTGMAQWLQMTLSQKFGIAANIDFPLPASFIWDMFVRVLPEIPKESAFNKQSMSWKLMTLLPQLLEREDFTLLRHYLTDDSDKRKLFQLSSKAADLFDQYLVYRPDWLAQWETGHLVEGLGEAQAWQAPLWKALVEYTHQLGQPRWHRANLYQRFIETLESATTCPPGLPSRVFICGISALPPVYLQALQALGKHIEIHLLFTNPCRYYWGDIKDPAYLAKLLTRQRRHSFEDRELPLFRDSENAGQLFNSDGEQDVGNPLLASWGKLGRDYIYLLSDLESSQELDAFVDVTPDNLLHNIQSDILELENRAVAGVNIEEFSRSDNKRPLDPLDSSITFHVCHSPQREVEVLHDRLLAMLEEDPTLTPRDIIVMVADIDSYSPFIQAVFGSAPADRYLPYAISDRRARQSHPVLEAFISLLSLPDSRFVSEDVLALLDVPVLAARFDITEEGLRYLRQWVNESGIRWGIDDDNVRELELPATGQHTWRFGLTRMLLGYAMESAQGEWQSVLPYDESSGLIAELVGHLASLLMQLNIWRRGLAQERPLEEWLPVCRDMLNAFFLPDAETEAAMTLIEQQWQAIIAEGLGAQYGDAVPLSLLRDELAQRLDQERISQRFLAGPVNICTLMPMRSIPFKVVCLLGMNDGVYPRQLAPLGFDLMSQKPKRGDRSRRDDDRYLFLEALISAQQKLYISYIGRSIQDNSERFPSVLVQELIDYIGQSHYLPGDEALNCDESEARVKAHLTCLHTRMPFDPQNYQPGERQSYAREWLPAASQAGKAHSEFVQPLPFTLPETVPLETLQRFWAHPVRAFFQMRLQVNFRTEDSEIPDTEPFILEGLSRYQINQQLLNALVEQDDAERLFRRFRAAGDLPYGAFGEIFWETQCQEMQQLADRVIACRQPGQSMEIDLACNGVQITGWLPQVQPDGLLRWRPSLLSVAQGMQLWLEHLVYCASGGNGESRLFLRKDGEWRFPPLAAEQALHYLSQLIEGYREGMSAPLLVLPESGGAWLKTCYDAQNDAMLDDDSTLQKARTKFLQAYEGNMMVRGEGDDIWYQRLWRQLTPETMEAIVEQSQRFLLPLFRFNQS
- Sequence (P08394 whole entry, looked up): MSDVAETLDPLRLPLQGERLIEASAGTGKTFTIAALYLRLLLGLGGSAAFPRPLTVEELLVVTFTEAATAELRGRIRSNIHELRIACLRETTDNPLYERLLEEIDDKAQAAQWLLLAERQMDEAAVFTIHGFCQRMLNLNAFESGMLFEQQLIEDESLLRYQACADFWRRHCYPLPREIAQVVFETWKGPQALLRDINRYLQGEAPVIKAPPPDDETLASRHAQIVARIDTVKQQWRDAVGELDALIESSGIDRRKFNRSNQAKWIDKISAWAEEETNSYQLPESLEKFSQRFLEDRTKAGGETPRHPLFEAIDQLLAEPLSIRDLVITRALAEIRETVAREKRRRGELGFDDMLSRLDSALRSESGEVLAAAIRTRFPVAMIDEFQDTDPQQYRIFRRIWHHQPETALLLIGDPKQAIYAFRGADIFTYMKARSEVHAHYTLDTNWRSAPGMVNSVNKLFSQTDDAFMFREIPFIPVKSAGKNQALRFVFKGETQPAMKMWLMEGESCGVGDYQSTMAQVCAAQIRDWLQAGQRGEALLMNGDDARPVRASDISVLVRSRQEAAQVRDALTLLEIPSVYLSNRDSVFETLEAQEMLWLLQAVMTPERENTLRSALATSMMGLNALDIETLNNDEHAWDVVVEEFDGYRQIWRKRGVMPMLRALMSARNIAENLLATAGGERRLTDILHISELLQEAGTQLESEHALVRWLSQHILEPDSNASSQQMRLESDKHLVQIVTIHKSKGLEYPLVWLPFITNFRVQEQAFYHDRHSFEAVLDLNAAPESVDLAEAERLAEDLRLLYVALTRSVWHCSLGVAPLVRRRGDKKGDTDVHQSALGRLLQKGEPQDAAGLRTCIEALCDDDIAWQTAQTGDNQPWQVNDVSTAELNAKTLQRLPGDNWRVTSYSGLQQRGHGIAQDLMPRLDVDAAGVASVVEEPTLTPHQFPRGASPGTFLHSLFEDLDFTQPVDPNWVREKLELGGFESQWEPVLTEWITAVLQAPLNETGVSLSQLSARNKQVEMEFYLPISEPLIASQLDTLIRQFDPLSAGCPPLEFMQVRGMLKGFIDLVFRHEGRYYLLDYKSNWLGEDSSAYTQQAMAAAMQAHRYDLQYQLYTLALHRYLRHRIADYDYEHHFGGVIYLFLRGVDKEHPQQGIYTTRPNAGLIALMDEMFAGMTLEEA
- Measurement Description: RecBCD helicase and Chi cutting inhibitors, late-stage follow-up, counter-screen for AddAB inhibitor project, biochemical, radioactive gel readout, single concentration (AID 623937)
- Condition Context: purified RecBCD, 32P DNA gel autoradiography, at 50 µM
Active and inactive are the calls of the source.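 The calls were made as follows: active = Chi band cutting by RecBCD reduced more than twofold versus the solvent-only control; inactive = reduction of twofold or less versus solvent-only control.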
Outcomes you can answer with include only these: active, inactive

Previously resolved entries follow.
| Structure | Group |
| --- | --- |
| CCn1cc(C(=O)O)c(=O)c2cnc(N3CCN(C(=S)NCc4ccccc4)CC3)nc21 | inactive |
| CC1(C)Cc2c(sc(NC(=O)c3ccco3)c2C#N)CO1 | inactive |
| O=C(Nc1ccc(N2CCOCC2)cc1)c1ccc([N+](=O)[O-])o1 | inactive |
| CCn1cc(C(=O)O)c(=O)c2cnc(N3CCN(C(=S)Nc4ccc(Cl)cc4)CC3)nc21 | inactive |
| CCn1cc(C(=O)O)c(=O)c2cnc(N3CCN(C(=S)Nc4ccccc4)CC3)nc21 | active |
| CCn1cc(C(=O)O)c(=O)c2cnc(N3CCN(C(=S)Nc4ccccc4Cl)CC3)nc21 | active |
| O=C(NCc1cccnc1)c1ccc([N+](=O)[O-])o1 | inactive |
| CCn1cc(C(=O)O)c(=O)c2cnc(N3CCN(C(=S)NC(=O)c4cccnc4)CC3)nc21 | inactive |
| O=C(OCC(=O)c1cccs1)c1ccc([N+](=O)[O-])o1 | inactive |

Input line: Could you kindly confirm the outcome this assay logged for `CCn1cc(C(=O)O)c(=O)c2cnc(N3CCN(C(=S)Nc4ccc5c(c4)OCO5)CC3)nc21` ?
Output line: inactive

---

- Study System: RecBCD enzyme subunit RecC (Escherichia coli (strain K12)) + RecBCD enzyme subunit RecB (Escherichia coli (strain K12)) (UniProt P07648+P08394)
- Measurement Description: RecBCD helicase and Chi cutting inhibitors, late-stage follow-up, counter-screen for AddAB inhibitor project, biochemical, radioactive gel readout, single concentration (AID 623937)
- Condition Context: purified RecBCD, 32P DNA gel autoradiography, at 50 µM
Active and inactive are the calls of the source.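 Rule for the calls: active = Chi band cutting by RecBCD reduced more than twofold versus the solvent-only control; inactive = reduction of twofold or less versus solvent-only control.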
Outcomes you can answer with include only these: active, inactive

| Molecule | Group |
| --- | --- |
| O=C(Nc1ncccn1)c1ccc([N+](=O)[O-])o1 | active |

Input line: Could you kindly confirm the outcome this assay logged for `CCn1cc(C(=O)O)c(=O)c2cnc(N3CCN(C(=S)Nc4ccccc4OC)CC3)nc21` ?
Output line: inactive

Input line: Could you kindly confirm the outcome this assay logged for `CCn1cc(C(=O)O)c(=O)c2cnc(N3CCN(C(=O)Nc4ccccc4)CC3)nc21` ?
Output line: active

Input line: Could you kindly confirm the outcome this assay logged for `NC(=O)c1ccsc1NC(=O)COC(=O)c1ccc([N+](=O)[O-])o1` ?
Output line: inactive

Input line: Could you kindly confirm the outcome this assay logged for `N#Cc1c(NC(=O)c2ccccc2)sc2c1CCC2` ?
Output line: inactive

Input line: Could you kindly confirm the outcome this assay logged for `Cc1ccc2nc(/C(C#N)=C\c3ccc([N+](=O)[O-])o3)[nH]c2c1` ?
Output line: active

Input line: Could you kindly confirm the outcome this assay logged for `C=CCNC(=S)N1CCN(c2ncc3c(=O)c(C(=O)O)cn(CC)c3n2)CC1` ?
Output line: inactive

Input line: Could you kindly confirm the outcome this assay logged for CC1CCc2c(sc(NC(=O)c3ccc([N+](=O)[O-])o3)c2N)C1 (stereo unspecified) ?
Output line: active

Input line: Could you kindly confirm the outcome this assay logged for `C=CCn1c(Sc2ncc([N+](=O)[O-])s2)n[nH]c1=O` ?
Output line: inactive

Input line: Could you kindly confirm the outcome this assay logged for `N#Cc1c(NC(=O)c2ccc(-c3ccccc3[N+](=O)[O-])o2)sc2c1CCCC2` ?
Output line: inactive

Input line: Could you kindly confirm the outcome this assay logged for N#Cc1c(NC(=O)C2CC=CCC2C(=O)O)sc2c1CCC2 (stereo unspecified) ?
Output line: inactive
